# Test system: H9c2 cardiomyocytes, 2-deoxyglucose stress, ATP luminescence, 2 h
# Method Notes: H9c2 cell survival under 2-deoxyglucose stress – uHTS hits, dose response (AID 588780)
The source made the active and inactive calls.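 Rule for the calls: active = compounds whose fitted half-maximal concentration in the cell-protection dose series is at or below a set limit; inactive = the rest.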
Outcomes: true (1) (active), false (0) (inactive)

Compound String: COc1cccc(C(=O)Nc2cccc(-c3nnc(-c4ccco4)o3)c2)c1
Group Label: false (0)
--
Compound String: COc1cc(-c2nnc(-c3ccc(N4CCOCC4)cc3)o2)cc(OC)c1OC
Group Label: false (0)
--
Compound String: Cc1cc(Br)cc(C=Nc2ccc(N3CCOCC3)cc2)c1O
Group Label: false (0)
--
Compound String: O=C(Cn1nc(C(=O)O)c2ccccc2c1=O)c1c[nH]c2ccccc12
Group Label: false (0)
--
Compound String: c1coc(-c2nnc3sc(-c4cccs4)nn23)c1
Group Label: false (0)
--
Compound String: Cc1ccc(OCC(=O)NCc2n[nH]c(=O)c3ccccc23)cc1
Group Label: false (0)
--
Compound String: CCn1c2ccccc2c2nc3cc(OC)c(OC)cc3nc21
Group Label: false (0)
--
Compound String: COc1ccc(-c2csc(NC(=O)c3ccc(OCC(=O)N4CCOCC4)c(OC)c3)n2)cc1OC
Group Label: false (0)
--
Compound String: CCOC(=O)[C@H]1[C@H]2COc3ccc(Br)cc3[C@@H]2N2C(=O)c3cc(OC)c(OC)cc3NC(=O)[C@@]12C
Group Label: false (0)
--
Compound String: CN(CC(=O)Nc1ccccc1Br)C(=O)Cn1[nH]c(=O)c2ccccc2c1=O
Group Label: false (0)
--
Compound String: CNS(=O)(=O)c1cc2c3c(cccc3c1)C(=O)NC2=O
Group Label: false (0)
--
Compound String: COc1ccc(/C=N/NC(=O)c2ccc(COc3cccc4cccnc34)cc2)cc1OC
Group Label: false (0)
--
Compound String: COC(=O)/C(=C(O)\C=C\c1ccccc1[N+](=O)[O-])c1nc2ccccc2[nH]1
Group Label: false (0)
--
Compound String: COc1ccc(-c2ccc3c(c2)S(=O)(=O)c2cccc(C(=O)N4CCN(c5ccccn5)CC4)c2C3=O)cc1OC
Group Label: true (1)
--
Compound String: CCCCN(Cc1nc2ccccc2c(=O)[nH]1)C(=O)CN1C(=O)NC2(CCCCC2)C1=O
Group Label: false (0)
--
Compound String: C=CCc1ccccc1OCC(=O)N/N=C/c1ccc(OC(C)=O)cc1OC(C)=O
Group Label: false (0)
--
Compound String: O=C(Nc1ccccc1)c1nc[nH]c1C(=O)NCCCCNC(=O)c1[nH]cnc1C(=O)Nc1ccccc1
Group Label: false (0)
--
Compound String: COc1ccc(C(=O)Nc2nc(-c3ccccn3)cs2)cc1S(=O)(=O)N1CCOCC1
Group Label: true (1)
--
Compound String: O=C(COc1cccc2c1CCNC2=O)Nc1ccc(Cl)cc1
Group Label: false (0)
--
Compound String: CCCCCn1c(=O)c(C(=O)NCc2ccccn2)c(O)c2ccccc21
Group Label: true (1)
--
Compound String: CC1(C)Cc2c(c(N3CCOCC3)nc3sc4c(NN)ncnc4c23)CS1
Group Label: false (0)
